Origin of the recorded values: PubChem BioAssay (Tox21)

Target: Muscarinic acetylcholine receptor M1 (Homo sapiens)
Experiment: Cholinergic receptor muscarinic 1 (CHRM1) small molecule antagonists, cell-based qHTS assay (AID 1963588); note: nearly all actives have a fitted effect of over 40% in size
Settings: CHRM1-CHO antagonist mode, calcium flux fluorescence; series mostly up to 61.5 µM
Source text: National Center for Advancing Translational Sciences [NCATS] Division of Preclinical Innovation [DPI] U.S. Environmental Protection Agency [EPA] National Institutes of Environmental Health Sciences [NIEHS] National Toxicology Program [NTP] U.S. Food and Drug Administration [FDA] The CHRM1 is a muscarinic receptor. […] The CHRM1-CHO Calcium Flux Assay is a homogeneous fluorescence-based assay for detecting the intracellular calcium level using FDSS kinetic plate reader system. […]
Inconclusive results are not listed. Calls of active or inactive are those of the source. Calls come from the whole dose curve.
A correct response names exactly one class from yes (1) for active, no (0) for inactive

Some solved cases for reference:
- CCCCCCCC[N+](CCCCCCCC)(CCCCCCCC)CCCCCCCC: no (0)
- CCCCOc1ccc(C(=O)CCN2CCCCC2)cc1: yes (1)
- CC[N+](C)(CC)CCOC(=O)C(O)(c1ccccc1)C1CCCCC1 (stereo unspecified): no (0)
- Nc1cc(C(=O)O)ccc1Cl: no (0)
- CCN1CCCC1CNC(=O)c1cc(S(=O)(=O)CC)c(N)cc1OC (stereo unspecified): no (0)

Turning to the following compound.
Hey, what did the test say about Cc1c(C(C)C)c(=O)n(-c2ccccc2)n1C ?
no (0)

---

Target: Gonadotropin-releasing hormone receptor (Homo sapiens) (UniProt P30968)
Sequence (P30968 whole entry, looked up): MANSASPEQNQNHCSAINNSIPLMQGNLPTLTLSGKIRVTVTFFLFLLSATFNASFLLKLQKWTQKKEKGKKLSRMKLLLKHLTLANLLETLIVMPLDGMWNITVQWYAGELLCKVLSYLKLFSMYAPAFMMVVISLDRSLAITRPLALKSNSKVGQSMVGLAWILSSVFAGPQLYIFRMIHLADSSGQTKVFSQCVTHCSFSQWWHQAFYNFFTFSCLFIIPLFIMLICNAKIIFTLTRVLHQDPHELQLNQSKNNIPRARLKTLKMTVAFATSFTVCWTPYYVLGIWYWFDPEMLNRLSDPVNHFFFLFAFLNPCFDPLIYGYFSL
Assay: Human gonadotropin-releasing hormone receptor (GnRHR) small molecule agonists, calcium flux assay in GnRHR-HEK293 cells (AID 1920063); note: potency is the fitted concentration of half-maximal effect; nearly all actives have a fitted effect of over 35% in size
Details: calcium flux fluorescence, agonist mode; series mostly up to 57.6 µM
Active and inactive are the calls of the source. Calls come from the whole dose curve.
MEASURE_NAME: Potency

// solved cases for Potency follow
- CC[C@H](NC(C)C)[C@H](O)c1ccc(O)c2[nH]c(=O)ccc12: 0.012 µM (active)
- O=C(O)Cn1c(C(=O)Nc2nc(-c3ccccc3Cl)cs2)cc2ccccc21: 3.38 µM (active)
- CCCCCCCCCCCC(=O)NCCCN(C)C: 30.9 µM (active)
- CCCCCCCCCCCCCC[n+]1ccccc1: 34.7 µM (active)
- CC(=O)OCC[N+](C)(C)C: 6.01 µM (active)

Report Potency for Cc1ccc(C(=O)Oc2ccc(C(O)CNC(C)(C)C)cc2OC(=O)c2ccc(C)cc2)cc1 (stereo not given) please.
0.0535 µM (active)

Proceed to CCN(CC)c1ccc2c(-c3ccc(S(=O)(=O)O)cc3S(=O)(=O)[O-])c3ccc(=[N+](CC)CC)cc-3oc2c1
45.1 µM (active)

How about Oc1ccc(C(O)CNCCCCCCNCC(O)c2ccc(O)c(O)c2)cc1O (stereo not given) ?
0.0756 µM (active)

Next up: C/C=C/C(=O)Oc1c(CCCCCC(C)C)cc([N+](=O)[O-])cc1[N+](=O)[O-]
38.9 µM (active)

Follow-up entry: CCCCCCCCCCCCN(CCO)CCO
30.8 µM (active)

---

Biological target: Beta-2 adrenergic receptor (Homo sapiens) (UniProt P07550)
Sequence (P07550 whole entry, looked up): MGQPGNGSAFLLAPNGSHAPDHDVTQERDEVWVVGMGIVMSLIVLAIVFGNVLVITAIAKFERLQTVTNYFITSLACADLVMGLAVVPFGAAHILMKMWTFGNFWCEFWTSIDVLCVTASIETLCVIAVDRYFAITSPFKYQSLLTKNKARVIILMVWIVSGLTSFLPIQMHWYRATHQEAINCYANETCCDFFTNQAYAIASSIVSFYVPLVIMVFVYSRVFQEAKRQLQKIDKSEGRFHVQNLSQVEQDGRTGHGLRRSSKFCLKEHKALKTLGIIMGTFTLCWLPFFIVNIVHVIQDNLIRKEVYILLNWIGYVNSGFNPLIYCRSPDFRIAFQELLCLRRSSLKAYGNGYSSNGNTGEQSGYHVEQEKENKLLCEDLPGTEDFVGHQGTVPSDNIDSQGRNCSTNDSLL
Assay: Adrenergic beta2 receptor (ADRB2) small molecule antagonists, cell-based qHTS assay (AID 1963592); note: % is set by controls: 0 for no effect and ±100 for the full control effect; nearly all actives have a fitted effect of over 50% in size
Conditions: CHO-ADRB2 cells, isoproterenol-stimulated cAMP HTRF ratio, 0.5 h; series mostly up to 92.4 µM
Results filed as inconclusive are left out. Activity calls are given as the source filed them. The call rests on the fitted dose curve.
MEASURE_NAME: activity change, negative = inhibition

These solved cases illustrate the format of a correct answer.
• CC1CCCCC1 = inactive
• Cc1cccc([N+](=O)[O-])c1C(=O)O = inactive
• Oc1c(I)cc(I)c2cccnc12 = inactive
• CC(C)(O)CCCC1=CCC(C=O)CC1 (stereo not drawn) = inactive
• COC(=O)c1ccc(NC(C)=O)cc1OC = inactive
• CCCCCCCCCCCCCOP(=O)(O)O = inactive
• CN1C[C@@H]2C[C@H]1CN2c1cc2c(cc1F)c(=O)c(C(=O)O)cn2C1CC1 = -1.81% [at 19 µM] (inactive)
• Cc1cc(C(C)(C)C)cc(C)c1CC1=NCCN1 = inactive
• COc1cc(OC)cc(OC)c1 = inactive
• CCC(=O)Nc1ccc(O)cc1 = inactive

What does the record list as activity change, negative = inhibition for CN(C)CCn1nnnc1SCC1=C(C(=O)O)N2C(=O)[C@@H](NC(=O)Cc3csc(N)n3)[C@H]2SC1 ?
inactive

Please answer likewise for CCCCCCCCOC(C)=O
inactive

Next record, please: CCN1CCCC1CNC(=O)c1cc(S(N)(=O)=O)ccc1OC (stereo not drawn)
inactive

Same read-out for Cc1c(C)c2c(c(C)c1O)CC[C@@](C)(CCC[C@H](C)CCC[C@H](C)CCCC(C)C)O2 ?
inactive

Would you kindly repeat that for Cc1cc(C)c(C=O)c(C)c1 ?
inactive

Lookup CCn1ccnc1CC1COc2ccccc2O1 (stereo not drawn)
inactive

Here is the next molecule: O=C(c1ccco1)N1CCNCC1
inactive

Follow-up entry: C#CC(O)CCCCC (stereo not drawn)
inactive

What would you report for O=S1OCCO1 ?
inactive

Same question, Cc1c(C)c2c(c(C)c1OC(=O)CCC(=O)O)CC[C@@](C)(CCC[C@H](C)CCC[C@H](C)CCCC(C)C)O2 this time
inactive

Please do the same for CCOCCn1c(C2CCN(CCc3ccc(C(C)(C)C(=O)O)cc3)CC2)nc2ccccc21 as well.
inactive

Cc1cccc(C)c1NC(=O)c1cc(S(N)(=O)=O)c(Cl)cc1O ?
inactive

Try O=c1c(-c2ccccc2)c1-c1ccccc1 next.
inactive

Moving on to CCc1cccc(CC)c1NC(=O)CN(CC(=O)O)CC(=O)O
inactive

Request: CCCCN1C=CN(C)C1
3.2% [at 19 µM] (inactive)

What do you have for COc1cc(C)ccc1O ?
inactive

Same thing, different molecule: CC(C)=CC(=O)C=C(C)C
inactive

What about O=C(NS(=O)(=O)/C=C/c1ccccc1)c1ccc(F)cc1Cl ?
inactive

Another: CC(=O)Oc1ccc(C2(c3ccc(OC(C)=O)cc3)C(=O)Nc3ccccc32)cc1
inactive
